Source of measurements: patent US20260207605A1

procedure.details: in vivo
condition.context: male, ICR, mouse, po, 10 mg/kg
value.kind: Cmax
State the value, then name its unit.

Reported Cmax for C#Cc1c(F)ccc2cc(N)cc(-c3ncc4c(N5C[C@H]6CC[C@@H](C5)N6)nc(OC[C@@]56CCCN5C/C(=C\F)C6)nc4c3F)c12 [Reference Compound 4] : what is it?
14.8 ng/mL

###

procedure.details: Pharmacokinetic experiment in mice (single PO or IV administration)
condition.context: male, ICR, mouse, plasma, po, 10 mg/kg
value.kind: log10 of Cmax (log10 of the value in ng/mL)
Give log10 of Cmax, with Cmax taken in ng/mL.

For orientation, consider the following solved cases.
{"columns": ["compound", "log10 of Cmax"],
 "data": [
  ["[2H]C([2H])([2H])C([2H])([2H])[C@@]12CC[C@@H](CN(c3nc(OC[C@@]45CCCN4C/C(=C\\F)C5)nc4c(F)c(-c5ccc(F)c6sc(N)c(C#N)c56)c(Cl)cc34)C1)N2 (single isomer, unassigned)", 2.21],
  ["C#Cc1c(F)ccc2cc(O)cc(-c3ncc4c(N5C[C@H]6CC[C@@H](C5)N6)nc(OC[C@@]56CCCN5C/C(=C/F)C6)nc4c3F)c12 [Reference Compound 2, reference compound]", 1.44],
  ["[2H]C([2H])([2H])C([2H])([2H])[C@@]12CC[C@@H](CN(c3nc(OC[C@@]45CCCN4C/C(=C\\F)C5)nc4c(F)c(-c5cc(O)cc6ccc(F)c(C#C)c56)ncc34)C1)N2", 2.66],
  ["C#Cc1c(F)ccc2cc(O)cc(-c3ncc4c(N5C[C@@H]6CC[C@](C7CC7)(C5)N6)nc(OC[C@@]56CCCN5C/C(=C\\F)C6)nc4c3F)c12", 2.48],
  ["C#Cc1c(F)ccc2cc(O)cc(-c3ncc4c(N5CC6CCC(C5)N6)nc(OC[C@@]56CCCN5C[C@H](F)C6)nc4c3F)c12 [Positive Compound 1, reference compound]", 1.31]
]}

Reported log10 of Cmax for C#Cc1c(F)ccc2cc(O)cc(-c3ncc4c(N5C[C@H]6CC[C@@H](C5)N6)nc(OC[C@@]56CCCN5CC(=C)C6)nc4c3F)c12 [Reference Compound 3, reference compound] : what is it?
1.03

Quick one: [2H]C([2H])([2H])[C@@]12CC[C@@H](CN(c3nc(OC[C@@]45CCCN4C/C(=C\F)C5)nc4c(F)c(-c5cc(N)cc6ccc(F)c(C#C)c56)ncc34)C1)N2
2.08

###

procedure.details: Pharmacokinetic experiment in mice (single PO or IV administration)
condition.context: male, ICR, mouse, plasma, po, 10 mg/kg
value.kind: half-life (h)
All answers are understood in h, so give the number only.

Reported half-life for C#Cc1c(F)ccc2cc(O)cc(-c3ncc4c(N5C[C@H]6CC[C@@H](C5)N6)nc(OC[C@@]56CCCN5CC(=C)C6)nc4c3F)c12 [Reference Compound 3, reference compound] : what is it?
2.6

Quick one: [2H]C([2H])([2H])C([2H])([2H])[C@@]12CC[C@@H](CN(c3nc(OC[C@@]45CCCN4C/C(=C\F)C5)nc4c(F)c(-c5ccc(F)c6sc(N)c(C#N)c56)c(Cl)cc34)C1)N2 (single isomer, unassigned)
9.6

Quick one: [2H]C([2H])([2H])C([2H])([2H])[C@@]12CC[C@@H](CN(c3nc(OC[C@@]45CCCN4C/C(=C\F)C5)nc4c(F)c(-c5cc(O)cc6ccc(F)c(C#C)c56)ncc34)C1)N2
4.9

Quick one: [2H]C([2H])([2H])OC[C@@]12CC[C@@H](CN(c3nc(OC[C@@]45CCCN4C/C(=C\F)C5)nc4c(F)c(-c5cc(O)cc6ccc(F)c(C#C)c56)ncc34)C1)N2
5.7

###

target.of.assay: KRAS^G12D/cRAF (Homo sapiens, UniProt P01116, G12D)
Sequence (P01116 1-188 isoform P01116-2 G12D): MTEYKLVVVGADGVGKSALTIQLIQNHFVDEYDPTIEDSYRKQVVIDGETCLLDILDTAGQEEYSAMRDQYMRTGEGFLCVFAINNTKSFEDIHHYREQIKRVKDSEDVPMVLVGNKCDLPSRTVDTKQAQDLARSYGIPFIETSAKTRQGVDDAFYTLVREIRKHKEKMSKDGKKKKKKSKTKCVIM
procedure.details: KRAS G12D/cRAF binding test (Alphalisa)
condition.context: His-tagged KRAS G12D with GMPPNP, GST-tagged cRAF
Measured IC50, listed per entry for reference.
All answers are understood in µM, so give the number only.

Reported IC50 for [2H]C([2H])([2H])C([2H])([2H])[C@@]12CC[C@@H](CN(c3nc(OC[C@@]45CCCN4C/C(=C\F)C5)nc4c(F)c(-c5ccc(F)c6sc(N)c(C#N)c56)c(Cl)cc34)C1)N2 [Example 360] : what is it?
0.0202

Quick one: C#Cc1c(F)ccc2cc(O)cc(-c3ncc4c(N5C[C@@H]6CC[C@](COC)(C5)N6)nc(OC[C@@]56CCCN5C/C(=C\F)C6)nc4c3F)c12
0.006

Quick one: [2H]C([2H])([2H])[C@@]12CC[C@@H](CN(c3nc(OC[C@@]45CCCN4C/C(=C\F)C5)nc4c(F)c(-c5cc(O)cc6ccc(F)c(C#C)c56)ncc34)C1)N2
0.0166

###

procedure.details: Pharmacokinetic experiment in mice (single PO or IV administration)
condition.context: male, ICR, mouse, plasma, iv, 2 mg/kg
value.kind: AUC

For orientation, consider the following solved cases.
{"columns": ["compound", "value.kind", "measurement"],
 "data": [
  ["C#Cc1c(F)ccc2cc(O)cc(-c3ncc4c(N5C[C@@H]6CC[C@](C7CC7)(C5)N6)nc(OC[C@@]56CCCN5C/C(=C\\F)C6)nc4c3F)c12", "AUC", "813 ng·h/mL"],
  ["[2H]C([2H])([2H])[C@@]12CC[C@@H](CN(c3nc(OC[C@@]45CCCN4C/C(=C\\F)C5)nc4c(F)c(-c5cc(N)cc6ccc(F)c(C#C)c56)ncc34)C1)N2", "AUC", "223 ng·h/mL"],
  ["[2H]C([2H])([2H])C([2H])([2H])[C@@]12CC[C@@H](CN(c3nc(OC[C@@]45CCCN4C/C(=C\\F)C5)nc4c(F)c(-c5ccc(F)c6sc(N)c(C#N)c56)c(Cl)cc34)C1)N2 (single isomer, unassigned)", "AUC", "221 ng·h/mL"]
]}

Reported AUC for C#Cc1c(F)ccc2cc(O)cc(-c3ncc4c(N5CC6CCC(C5)N6)nc(OC[C@@]56CCCN5C[C@H](F)C6)nc4c3F)c12 [Positive Compound 1, reference compound] : what is it?
367 ng·h/mL

###

Measured pIC50, listed per entry for reference.
Test system: AGS
procedure.details: Anti-proliferative 2D CTG assay, AGS
Format: cell-based
condition.context: Homo sapiens, AGS, 96 h, AGS cells, 4 days incubation, read-out: AGS cell IC50
Procedure: 1.1 Day 0 Cell Culture and Plating Cells in a logarithmic growth phase were harvested and the cells were counted by using a […]. Cell viability was tested by using a trypan blue exclusion method to ensure that cell viability was above 90%. […] 10 μL PBS was added to each well of the TO plate containing cells. […] The plate was left at room temperature for 20 minutes to stabilize the luminescence signal. The TO fluorescence signal value was read. […]
As a rule, pIC50 stands for the negative log10 of the concentration, concentration in M.

For orientation, consider the following solved cases.
{"columns": ["molecule", "target.of.assay", "measurement"],
 "data": [
  ["[2H]C([2H])([2H])C12CCC(CN(c3nc(OCC45CC(=C)CN4CC(=C)C5)nc4c(F)c(-c5cc(O)cc6ccc(F)c(C#C)c56)ncc34)C1)N2 (centres unmarked) [Example 6]", "AGS", 7.84],
  ["[2H]C([2H])([2H])OCC12CCC(CN(c3nc(OCC45CC(=C)CN4CC(=C)C5)nc4c(F)c(-c5cc(O)cc6ccc(F)c(C#C)c56)nc(OC)c34)C1)N2 (single isomer, unassigned) [Example 173]", "AGS", 7.58],
  ["C#Cc1c(F)ccc2cc(O)cc(-c3ncc4c(N5C[C@@H]6CC[C@](COC)(C5)N6)nc(OC[C@@]56CCCN5C/C(=C\\F)C6)nc4c3F)c12 [Example 58]", "AGS", 8.77],
  ["C#Cc1c(F)ccc2cc(O)cc(-c3ncc4c(N5C[C@@H]6CC[C@](CC)(C5)N6)nc(OC[C@@]56CCCN5C/C(=C/F)C6)nc4c3F)c12 [Example 80]", "AGS", 8.24]
]}

Reported pIC50 for [2H]C([2H])([2H])Oc1nc(-c2cc(O)cc3ccc(F)c(C#C)c23)c(F)c2nc(OCC34CC(=C)CN3CC(=C)C4)nc(N3CC4CCC(CC)(C3)N4)c12 (centres unmarked) [Example 201] : what is it?
7.67

Quick one: [2H]C([2H])([2H])C([2H])([2H])[C@@]12CC[C@@H](CN(c3nc(OC[C@@]45CCCN4CC(=C)C5)nc4c(F)c(-c5cc(N)cc6ccc(F)c(C#C)c56)ncc34)C1)N2 [Example 357]
7.64

Quick one: [2H]C([2H])([2H])[C@@]12CC[C@@H](CN(c3nc(OC[C@@]45CCCN4C/C(=C\F)C5)nc4c(F)c(-c5cc(N)cc6ccc(F)c(C#C)c56)ncc34)C1)N2 [Example 355]
7.75

Quick one: [2H]C([2H])([2H])[C@@]12CC[C@@H](CN(c3nc(OC[C@@]45CCCN4C/C(=C\F)C5)nc4c(F)c(-c5cc(O)cc6ccc(F)c(C#C)c56)ncc34)C1)N2 [Example 53]
9.00

Quick one: C#Cc1c(F)ccc2cc(O)cc(-c3ncc4c(N5C[C@@H]6CC[C@](C7CC7)(C5)N6)nc(OC[C@@]56CCCN5C/C(=C\F)C6)nc4c3F)c12 [Example 68]
7.48

Quick one: C#Cc1c(F)ccc2cc(O)cc(-c3ncc4c(N5C[C@@H]6CC[C@](CC)(C5)N6)nc(OC[C@@]56CCCN5C[C@H](F)C6)nc4c3F)c12 [Positive Compound 2, reference compound]
8.04

Quick one: C#Cc1c(F)ccc2cc(O)cc(-c3ncc4c(N5C[C@@H]6CC[C@](C7CCCC7)(C5)N6)nc(OC[C@@]56CCCN5C/C(=C\F)C6)nc4c3F)c12 [Example 75]
7.85
